Entries and their apparent KD of MS2 coat protein values follow.
Tested on: MS2 coat protein
PROTOCOL TEXT: apparent KD of MS2 coat protein; designed switch direction (-1 OFF switch, 1 ON switch): -1; higher = weaker reporter binding
MEASUREMENT CONDITIONS: input ligand: FMN 200 uM
Please state the figure in nM; there is no need to write the unit.

## Task Bench note: what apparent KD of MS2 coat protein did ACUCGACAUGAGGAUCACCCAUGUGAGGAUAUGGCCUGUAUGGCGUGAGCUGGAUCAAUCAGAAGGCGCGUGGG [salish99_ex1_r4_052] (Eterna round: R97, puzzle: Exclusion 1) show?
## Result 80.4

## Task Bench note: what apparent KD of MS2 coat protein did ACCGAUGUGCAAGGAUAUGACAUGAGGAUCACCCAUGUCAAAACAAGAAGAACGGGUGUGCCUCCUUAGAAGGUGCACAAACGA [Eternabot solution 2] (Eterna round: R96, puzzle: Exclusion NG 2) show?
## Result 26.1

## Task Bench note: what apparent KD of MS2 coat protein did UAAUUAAUUAAUUAAUAAUACAUGAGGAUCACCCAUGUAGAUCCUACAUACAAUUUAAGUAGCUCGUCUUAUAAUUA [Stov1/1-A1] (Eterna round: R97, puzzle: Sensor, turn-off variant 1) show?
## Result 206
